biological target: epidermal growth factor receptor tyrosine kinase (EGFR-TK) (Homo sapiens, UniProt P00533)
Sequence (P00533 25-1210): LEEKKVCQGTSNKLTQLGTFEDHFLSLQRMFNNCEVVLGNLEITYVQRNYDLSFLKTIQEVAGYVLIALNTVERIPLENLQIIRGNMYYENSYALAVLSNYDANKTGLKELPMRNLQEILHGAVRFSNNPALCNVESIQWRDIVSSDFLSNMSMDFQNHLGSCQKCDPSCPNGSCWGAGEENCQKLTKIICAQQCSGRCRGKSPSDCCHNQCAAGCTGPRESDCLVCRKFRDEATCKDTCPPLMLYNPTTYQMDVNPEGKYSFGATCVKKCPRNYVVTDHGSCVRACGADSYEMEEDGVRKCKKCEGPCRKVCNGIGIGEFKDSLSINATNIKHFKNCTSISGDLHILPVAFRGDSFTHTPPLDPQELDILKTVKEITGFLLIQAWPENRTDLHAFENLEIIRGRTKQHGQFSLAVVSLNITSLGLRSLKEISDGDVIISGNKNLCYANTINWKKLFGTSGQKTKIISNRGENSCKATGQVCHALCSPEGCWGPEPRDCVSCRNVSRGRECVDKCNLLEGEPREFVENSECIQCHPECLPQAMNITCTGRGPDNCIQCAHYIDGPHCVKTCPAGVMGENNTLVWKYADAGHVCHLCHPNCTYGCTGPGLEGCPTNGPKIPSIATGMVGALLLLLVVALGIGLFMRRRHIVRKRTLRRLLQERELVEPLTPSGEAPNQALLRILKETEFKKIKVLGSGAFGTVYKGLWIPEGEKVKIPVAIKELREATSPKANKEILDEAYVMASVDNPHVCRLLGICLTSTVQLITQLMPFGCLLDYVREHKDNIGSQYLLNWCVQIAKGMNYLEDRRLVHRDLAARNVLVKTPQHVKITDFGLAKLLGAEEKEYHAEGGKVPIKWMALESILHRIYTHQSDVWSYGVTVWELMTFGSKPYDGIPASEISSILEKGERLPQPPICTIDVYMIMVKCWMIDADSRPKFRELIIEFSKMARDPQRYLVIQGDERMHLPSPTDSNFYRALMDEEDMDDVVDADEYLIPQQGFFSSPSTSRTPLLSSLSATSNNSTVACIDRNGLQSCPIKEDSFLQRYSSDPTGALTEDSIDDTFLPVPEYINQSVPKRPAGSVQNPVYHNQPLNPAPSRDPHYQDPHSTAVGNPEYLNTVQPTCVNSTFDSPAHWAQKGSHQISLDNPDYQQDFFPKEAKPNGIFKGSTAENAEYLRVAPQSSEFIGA
readout: IC50

Name the recorded IC50 for Fc1ccc(-c2nc(Nc3cc(Br)cc4cc(-c5ccc(F)cc5)[nH]c34)c3ccccc3n2)cc1 .
0.0525 µM
